Target: T1, mouse IL-25 expressed with a C-terminal myc-myc-hexahistidine tag (mouse)
T1 construct: also called Mouse IL-25-MMH; mIL-25-MMH
T1 chain: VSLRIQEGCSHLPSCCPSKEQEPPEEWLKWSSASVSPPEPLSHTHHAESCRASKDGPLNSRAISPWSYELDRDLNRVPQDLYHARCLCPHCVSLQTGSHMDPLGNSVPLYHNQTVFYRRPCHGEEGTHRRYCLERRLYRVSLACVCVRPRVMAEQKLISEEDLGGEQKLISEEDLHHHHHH
Assay: SPR Biacore, antibody captured, 25C
Recorded koff values for a group of binders are listed next.
Report the value in s⁻¹ with no unit label.

See these solved cases before continuing.
BINDER | READOUT UNIT | REPORTED VALUE
H4H10905P (antibody, human IgG4, V domains shown, H4H prefix = human IgG4 Fc) VH: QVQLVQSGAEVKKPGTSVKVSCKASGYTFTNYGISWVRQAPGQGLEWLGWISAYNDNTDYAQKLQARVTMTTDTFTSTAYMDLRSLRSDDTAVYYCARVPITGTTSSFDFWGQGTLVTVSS VL: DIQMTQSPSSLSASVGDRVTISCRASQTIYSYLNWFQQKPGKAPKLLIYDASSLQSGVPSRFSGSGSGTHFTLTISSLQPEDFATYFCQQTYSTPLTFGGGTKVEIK | s⁻¹ | 0.000145
H4H10863P (antibody, human IgG4, V domains shown, H4H prefix = human IgG4 Fc) VH: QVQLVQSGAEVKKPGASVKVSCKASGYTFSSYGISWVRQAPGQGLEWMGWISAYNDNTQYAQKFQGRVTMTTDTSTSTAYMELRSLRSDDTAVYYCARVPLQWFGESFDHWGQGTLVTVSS VL: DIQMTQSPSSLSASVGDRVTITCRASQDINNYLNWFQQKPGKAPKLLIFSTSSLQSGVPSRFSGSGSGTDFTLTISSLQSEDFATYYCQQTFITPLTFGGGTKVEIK | s⁻¹ | 0.000149

# evaluate next
q: Given the binder H4H10871P (antibody, human IgG4, V domains shown, H4H prefix = human IgG4 Fc) VH: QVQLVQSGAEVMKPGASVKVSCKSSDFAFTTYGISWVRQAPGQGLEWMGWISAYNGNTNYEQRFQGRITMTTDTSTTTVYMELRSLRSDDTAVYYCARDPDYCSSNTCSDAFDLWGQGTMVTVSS VL: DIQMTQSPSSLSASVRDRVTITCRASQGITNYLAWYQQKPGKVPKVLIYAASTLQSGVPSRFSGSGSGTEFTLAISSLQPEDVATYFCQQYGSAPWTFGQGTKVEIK , what is its reported koff?
a: 0.000111
